study_target: Phosphatidylinositol 4,5-bisphosphate 3-kinase catalytic subunit delta isoform (Homo sapiens)
Sequence (O00329 whole entry): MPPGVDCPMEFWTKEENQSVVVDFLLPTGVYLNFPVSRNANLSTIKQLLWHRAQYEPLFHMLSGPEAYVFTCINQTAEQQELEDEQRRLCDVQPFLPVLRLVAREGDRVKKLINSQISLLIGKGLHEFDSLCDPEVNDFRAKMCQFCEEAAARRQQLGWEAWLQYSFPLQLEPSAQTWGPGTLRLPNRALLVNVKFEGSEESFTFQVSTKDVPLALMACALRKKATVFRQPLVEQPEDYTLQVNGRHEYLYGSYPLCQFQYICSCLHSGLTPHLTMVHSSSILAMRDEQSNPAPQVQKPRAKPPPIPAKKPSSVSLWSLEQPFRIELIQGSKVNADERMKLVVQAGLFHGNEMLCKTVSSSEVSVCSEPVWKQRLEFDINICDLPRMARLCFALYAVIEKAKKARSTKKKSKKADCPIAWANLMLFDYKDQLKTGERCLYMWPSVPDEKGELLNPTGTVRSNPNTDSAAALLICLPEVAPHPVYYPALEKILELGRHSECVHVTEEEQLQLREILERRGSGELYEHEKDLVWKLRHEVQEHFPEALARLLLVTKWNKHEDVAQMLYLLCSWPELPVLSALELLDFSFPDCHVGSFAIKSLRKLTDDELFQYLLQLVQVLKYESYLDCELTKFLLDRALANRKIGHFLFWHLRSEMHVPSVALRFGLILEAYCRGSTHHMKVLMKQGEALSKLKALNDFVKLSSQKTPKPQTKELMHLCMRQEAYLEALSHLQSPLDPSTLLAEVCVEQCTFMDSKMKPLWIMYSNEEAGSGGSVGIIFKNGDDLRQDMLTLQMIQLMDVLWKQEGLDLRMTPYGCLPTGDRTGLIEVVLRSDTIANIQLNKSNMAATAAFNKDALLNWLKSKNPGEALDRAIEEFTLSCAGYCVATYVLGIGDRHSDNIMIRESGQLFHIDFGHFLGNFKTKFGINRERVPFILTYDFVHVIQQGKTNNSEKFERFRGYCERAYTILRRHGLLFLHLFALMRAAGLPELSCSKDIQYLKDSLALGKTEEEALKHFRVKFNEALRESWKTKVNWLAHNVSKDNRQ
protocol_summary: Inhibition of PI3Kdelta (unknown origin) using PIP2 as substrate preincubated for 15 mins followed by substrate addition and measured after 1 hr by HTRF assay
pIC50: −log10 of the molar value.
Threshold rule: pIC50 greater than or equal to 5 is Yes; below that, No.

{"compound": "CNCC(=O)Nc1ccc(-c2nc(N3CCOC[C@@H]3C)cc(C(C)(C)S(C)(=O)=O)n2)cc1", "class": "Yes"}
{"compound": "Oc1cccc(-c2nccc(N3CCOCC3)n2)c1", "class": "Yes"}
{"compound": "Oc1cccc(-c2nccc(C3=CCOCC3)n2)c1", "class": "Yes"}
{"compound": "CCNC(=O)Nc1ccc(-c2nccc(C34CCOCC3C4)n2)cc1 (stereo not given)", "class": "Yes"}
{"compound": "Oc1cccc(-c2nccc(C34CCOCC3C4)n2)c1 (stereo not given)", "class": "Yes"}
{"compound": "CNCC(=O)Nc1ccc(-c2nc(CS(C)(=O)=O)cc([C@]34CCOC[C@H]3C4)n2)cc1", "class": "No"}
{"compound": "C[C@H]1COCCN1c1cc(CS(C)(=O)=O)nc(-c2cccc(O)c2)n1", "class": "Yes"}
{"compound": "Oc1cccc(-c2nccc([C@]34CCOC[C@H]3C4)n2)c1", "class": "Yes"}
{"compound": "CCNC(=O)Nc1ccc(-c2nccc([C@]34CCOC[C@H]3C4)n2)cc1", "class": "No"}
{"compound": "CNCC(=O)Nc1ccc(-c2nc(CS(C)(=O)=O)cc([C@@]34CCOC[C@@H]3C4)n2)cc1", "class": "No"}
{"compound": "C[C@H]1COCCN1c1cc(C(C)(C)S(C)(=O)=O)nc(-c2cccc(O)c2)n1", "class": "Yes"}
{"compound": "Oc1cccc(-c2nccc([C@@]34CCOC[C@@H]3C4)n2)c1", "class": "Yes"}
{"compound": "CC(C)(c1cc([C@]23CCOC[C@H]2C3)nc(-c2ccc(NC(=S)NCCO)cc2)n1)S(C)(=O)=O", "class": "No"}
{"compound": "CCNC(=O)Nc1ccc(-c2nc(CS(C)(=O)=O)cc(N3CCOC[C@@H]3C)n2)cc1", "class": "No"}
{"compound": "CC(C)(c1cc([C@@]23CCOC[C@@H]2C3)nc(-c2ccc(NC(=S)NCCO)cc2)n1)S(C)(=O)=O", "class": "No"}
